tested-on: YA peptide (Octet assay of PS557 variants)
assay-text: Octet (BLI), peptide on sensor, response after 200 s association
Collected Octet response values appear next to each entry.
Give just the numeric value; nm need not be written.

# binder, test-result
measured = [
    ("PS847 (designed binder) MPTAASATESAIEDTPAPARPEVDGRTKPKRQPRYHVVLWDDDDHTYQYVVVMLRSLFGHPPERGYRLAKEMDTQGRVIVLTTTREHAELKRDQIHAFGYDRLLARSKGSMKASIEAEE", 0.0607),
]

Indicate its recorded Octet response; the binder in question is PS838 (designed binder) MPTAASATESAIEDTPAPARPEVDGRTKPKRQPRYHVVLWDDDDHTYQYVVVMLQSLFGHPRERGYRLAKEMDTQGRVIVLTTTREHAELKRDQIHAFGYDRLLARSKGSMKASIEAEE
0.59
